Test: soluble on expression in E. coli; label from the status in PepcDB or PDB records
Reported property: soluble on expression in E. coli

MKAVINNTNPENTPPTRAIKRLERDVLRMGALVEQSFRLSHQALFARDLTAAEELPRLDKKIDRFYRQIESDCTSIITLQAPTAQDLRCLSAFMQLVRDLERIGDYAKDLAEIAIKIFPYPPHASLPEIALMSNNAQAMLATSLLALADLDEINGRRLKYLDDDVDHAYNQLYHTLAHQKDVPGVIEPILLLTLAIRCLERMADHATNIGQRVAYIVTGQR not soluble
TKDFSWDTTLSFTWSKEKINSLPTGDLIKENLFEGQPIHALYDYKYAGIWGSNVPQETLDAYGVKPGWVKIETLDKDGDGGVHKYGEDDRQILGHTNPDVILGLNNTLTYKNFDLSIFAMARYGQTIKSSLIGWYRASSNYSINQPAGVDYWTENNQGAYYPVPGSGDEQKVMSALTYRDGSFIKVKNITLGYTLPQSVSRKVLMEKCRFYATAYNPFLYVKDKELRGTDPETNGSDAFPLYKQFVFGINVTF not soluble

----------
Experiment: soluble on expression in E. coli; label from the status in PepcDB or PDB records
Reported property: soluble on expression in E. coli

MGSDKIHHHHHHMAVILFDIDGTLIDSTDQMTEAIHLAMEDMPHLVKPSKASVQSSYGLAGNAFWRKAIPDASENDIKEIRRKRHHHLEQTMQNQDVLFDGIRELLEQLTNQGHIVSTASNCGVHYLNLVLDSQNIRSYFTSPKCLESVNGKQKADILAAHREEFSEVDYLMVGDRSSDVEAARLQNMPVAICCFGFGTEQEWKTADHQLETPLDLLKFV not soluble
MGDSVLSAIQQTITQRKSANPSESYVAQLLHKGEDKILKKVIEEAGEVLMASKDKNPSHLVYEVADLWFHTMILLTHHDLKAEDVLDELARRQGLSGLVEKAARTES not soluble
MGSDKIHHHHHHMTVSQVSTGTGLGTRHVAFDWGGVFTVGTFDGRSTQNVAERSGVPVEKVRESYFRHIRQLEVGAWTLPQFWETVQQETGMTLPYADFEALYLGSIHDNAPMYTTLAALPRSVRVGLLSNNYPVVSEHLGRDPRFARFDALVFSNEIGHKKPAPEAFAALEQKMGLPAAQVAFVDDVQENIDAAGAFGFHGILYHHDAHERFEQELKEWLRG not soluble
MESVKCFDMITAFFDLSDSVHVVRKNGGLAFGKTWLGNFFVLVREVKILRATTEKFSLVNLRKLEPHSGQFRNQIREESAYRHPFLRIVVKVILAKRLRPLPYLTSKSK not soluble
MGSDKIHHHHHHMDIISSFGFGRKHIAPILSKLMMLYPKLQIHFDTIDNTKDLIQHSIDLDIRIGNEIAPNMIAKKLASNFRILCASPSYLLKHGVPDSIEDLQTHDCLTISERDQSSVLWKFRHASEDVSVHIKPRFVSNNGEIIHQLAIEGHGIIFRSIWDVADELITGQLQHILPEYWQDADVWAVYPSRLKSSSKLQTCILFIQNELLNRLQHVQNLSRGQLISPAVKREPPPEKVFL not soluble

(Q) Identify soluble on expression in E. coli associated with the sequence AWVDQTPRTATKETGESLTINCVLRDASYGLESTGWYRTKLGSTNEQTISIGGRYVETVNKGSKSFSLRIRDLRVEDSGTYKCGAFRFWLPYGYGSLPLSEKGAGTVLTVK
(A) soluble

(Q) Identify soluble on expression in E. coli associated with the sequence MRMNLTNHFLVAMPGMKDPYFQNSVIYVCEHNEEGAMGLMINAPVDITVGNMLKQVDVQPVHPRLFEASLDRPVYNGGPISEDRGFILHKPKDYYESSIQMTDDLAVTTSRDILSVLGTEAEPSDYLVALGYSGWSAGQLENELVENSWLTIEATPEIIFDTPITERWKKAVEKLGIDPSQLSADAGHALEHHHHHH
(A) soluble

(Q) Identify soluble on expression in E. coli associated with the sequence GQDRFVYTCNECKHHVETRWHCTVCEDYDLCINCYNTKSHTHKMVKWGLGLD
(A) soluble

(Q) Identify soluble on expression in E. coli associated with the sequence MGHHHHHHSHMDDAAVLKRRGYLLGINLGEGSYAKVKSAYSERLKFNVAIKIIDRKKAPADFLEKFLPREIEILAMLNHCSIIKTYEIFETSHGKVYIVMELAVQGDLLELIKTRGALHEDEARKKFHQLSLAIKYCHDLDVVHRDLKCDNLLLDKDFNIKLSDFSFSKRCLRDDSGRMALSKTFCGSPAYAAPEVLQGIPYQPKVYDIWSLGVILYIMVCGSMPYDDSNIKKMLRIQKEHRVNFPRSKHLTGECKDLIYHMLQPDVNRRLHIDEILSHCWMQPKARGSPSVA
(A) not soluble

----------
Test: soluble on expression in E. coli; label from the status in PepcDB or PDB records
Reported property: soluble on expression in E. coli

MGSDKIHHHHHHMCRWLAYTGNPLQLETVLFNARHSLIDQSLHSRLGYTTTNGDGFGIGWYGEPTDIPFRYRCIQPAWSDRNLREAARAIRAPLFVAHVRSATDTPSQETNCHPFRHGRWLFAHNGLIRNYPAVRRDLMVMIDPDLFPSIEGSTDSEVMFFLALTFGLELAPVTALERMVAFVEETGRKHGVDEPLNMTVCVTDGEQIVAVRYSSEGQSRSLFHSTSFHHLHELYPDDPRIAAAGENAFLVLSEPLADLPGWWEEIPESTVVVARGGQIEQYPFRPQSA not soluble
MGSDKIHHHHHHVPGLLPDVDREGLLEYSVVYTDRSLNHMSQLFQGVMRDISNSLKKVYNAKSAVVVPGSGTFGMEAVARQFATNRKCLVIRNGWFSYRWTQIFDMGGIPSESIVLKARPVEEGRQAAYAPPPIEEVVAAIRENKPDLVFAPHVETASGIMLPDAYLRAVADAVHAVDGMFVLDCIASGTVWVDMKASGVDVLISAPQKGWSASPCCGLVMLGELARERIEGTTSTSFACDLRKWLQIMEAYENGGFAYHATMPTDGLATLRDVMKETEAYGFDKVRAEQVELGRRVRSVLADRGFRSVAAEGFEAPGVVVSYTDDDGIRSGKKFADAGLQIAAGVPLQCDEPQDFKTFRIGLFGLDKLHDVEGAVGRFVKGLGSIL not soluble

----------
Test: soluble on expression in E. coli; label from the status in PepcDB or PDB records
Reported property: soluble on expression in E. coli

SEADASVDMFSKVLEHQLLQTTKLVEEHLDSEIQKLDQMDEDELERLKEKRLQALRKAQQQKQEWLSKGHGEYREIPSERDFFQEVKESENVVCHFYRDSTFRCKILDRHLAILSKKHLETKFLKLNVEKAPFLCERLHIKVIPTLALLKDGKTQDYVVGFTDLGNTDDFTTETLEWRLGSSDILNYSGNLMEPPFQNQKKFGTNFTKLEKKTIRGKKYDSDSDDD soluble
MLTLNYYVEITATPQRVWRVLTDAELYKRWAQAFSPQSQFEGEWEEGSDITFFDPDMGGTRAVIDSVQPLHRLEFHHVAIFNPDNRQQLDADIAAKWIGSREIYQIDTEDERLLLNITIHTHSDFVSMFNNGWEKALPLIKSICEETDSQLEHHHHHH soluble

----------
Experiment: soluble on expression in E. coli; label from the status in PepcDB or PDB records
Reported property: soluble on expression in E. coli

Below, 10 sequences whose answers are already recorded.
MHRSFPRLVRSQGNLLKGMFGKSGEKEAVKQLTLEEQESLRKTLPSIRARESTQVTASADSVTEFDDDLLTMSRIDTDAIRARGFLKYTQNYVPGVDVKNQVLEAASSCLRSAGVKSENVDQYKFVEGDNSVKFELLNRLGKSIEHWPTNGKLLHLETVADVVEFYQTPVKNVTKYTEMARDENKPKNVSIMEHAARFHPEDTHMYHGGITAFPGSGGEVLSLRQKRLLRQFQPKKEWFDYDDQTFDYTRPDKNMPWDPEVANQMDKYTDKRYNLKTKQFTRIRQ not soluble
MGSDKIHHHHHHVTEAQTDPKYYDVVEATWPCLRCEKLGDITLRVGAGGGSRVSAATCDALVSDAQIAQAEAAMQDFDQPRLFMIRDGQDALDGQLERLGYAVMDPVALWTVAPSMLTDVEIPRVTTFCLWEPLAIQREIWATGGIGPERLAIMERATRPKTSILGRWDDKPAGAAFVGMHEGIAMLHALEILPHQRRKGMGVWMMRQAAYWAAEQGATELAVLCTRANAGANALYARLGMQQAGGYHYRIKR not soluble
MSAFSAINEEREIERDEFTPGIEPQATWCPGCGDFGVLKALKQAMPEVGKNPDEVALFTGIGCSGKLNSYFNSYGFHTIHGRSLPVARAAKLANPNLEVIAAGGDGDGYGIGGNHTIHTARENHDMTYIVFNNEIFGLTKGQTSPTSPKGHKSKTQPHGSAKSPIRPLSQQLNAGATYIARTAAVNPNQAKEIIAEAIEHDGFAHIDFLTQCPTWNKDAKHYVPYTDVQQSDEFDFDVSDRAEAAEMMRKTEERLYEGEVLTGRMYIEDERPSYGEEKRQIGEMPEEPLAERYFDEDAEWERTYDNLLEHHK not soluble
MGSDKIHHHHHHLAIFIQYIDTLKLVSIGKNDMYSIEQLEAFVATVKTGSFSSAARALNKAQSVISQHVINLEIDCNSELFDRSGRYPQLTPAGKKLLPHAQVLLSQHQRLRDCAQSLDQQAISELTIGLDEGIPLQKLFNIINELEAKFPTITLEFLTASSIDIIDMIDTERAVTGIIFSELTIPAHIDFESIGSIKFDMYVASTHLLAQQIYDNLAHLKLHRQLLIRSRNTKSSSFQFAISPDVWYADNYYILLELALQGHGWCLLPNHIANHYVDSGQLVMLPSEFKEIGWQANVDVIQHHRYSHEPVFKQLRHSLRQLLTYSA not soluble
MESMLLPKYFDILIVDDIPEHIDVAVQVLRDSNFKIRVATDGNTALKLIYQQKPDLILLDIYMPEMDGFELCRLIKNTPDLKNIPVIFLTSFSDEESIRKGFESGGQDYVVKPFNASELLSRVKTHLMLKCQAESLKEANKELDSFCYTVAHDLKSPLLSLNKLVELLVSDHLNQLDSAGKELVYNIREKSSEIIHTVDRLLEFSKMCEMQVNFEIIDLNELFTEVCNELKSLEPQRDIRIHIQPLPKVYGDRLLMRLLISNILSNAFKYTRNRQTAIIEIQSSEDGNEYVFFVKDNGAGFDMKYSSRLFGVFQRLHSKDEFEGSGVGLAICQRILKRHNGRAWMTGEIDKGATFFFTLPKFE soluble
EVQLQASGGGSVQAGQSLRLSCATSGATSSSNCMGWFRQAPGKEREGVAVIDTGRGNTAYADSVQGRLTISLDNAKNTLYLQMNSLKPEDTAMYYCAADTSTWYRGYCGTNPNYFSYWGQGTQVTVSSRGRHHHHHH soluble
MQCGLLKHRLLKFFSTEAIMTTNQRSIKAPQTVVVKLGTSVLTGGTLALDRAHMVELARQCAELKKQGHSVVIVTSGAIAAGREHLGYPALPNAISSKQLLAAVGQSRLIQVWESLFAIYGIKIGQMLLTRADLDDRERFLNARDTINALVENGIVPVVNENDAVATNEIKVGDNDNLSALVGILCGADKLLLLTDQKGLFTADPRKDPNAQLIKEVTTIDDTLRKIAGGSGTTLGTGGMATKLQAADIARRAGIEVIIAAGRAPNVIFDSLSDEPQGTRFLALEEALENRKRWILAGPAASGDIVIDDGAVKAVQTKGSSLLAKGVVRVQGQFARGEVVRVLDKQSHLIARGIAAYSNDELAQIAGKHSKEIIDILGYDHGSEVIHRDDMVVIQE not soluble
MLEESKNALRVFITGNPGVGKTTILLFLINKLSENNYKVAGFYCPEVRENGRRIGFRIVDITTNEGDWLAKENAPGRVKIGKYTVLEDSAKRITEITLSNINKADVLAIDEIGPMELKIPTIKKLIETILNNQKPLIAVLHRTQKPMGGRIYVITVENRDSIKYEILNYILSSLD soluble
LKVLTNKASVMLFMKGNKQEAKCGFSKQILEILNSTGVEYETFDILEDEEVRQGLKTFSNWPTYPQLYVRGDLVGGLDIVKELKDNGELLPILKGE soluble
MHSEKSVMMEPMTNPKNDPRNPDLLLDFEEVEFTRGGKTLVGPITWQVELDERWVILGPNGAGKTTLIRMAAAEEFPSKGALWIMGERIGKTDMRDLRAMIGVSSSALGNRIPTNEKVLDLVISAGYAILGRWREEYDKWDHDRAIEILEQVGAYHLADQTWGTLSEGERKRVLVARALMTNPELLLLDEPTAGMDLGGREDLVGYLAQLAMDPDAPAMVMITHHVEEIPAGFTHALLLDEGEVVSQGLIDEVLTSANLTKAFHQPIKVDKIDGRYFARRQRTARSHRR not soluble

Turning to the following sequence.
(Q) Identify soluble on expression in E. coli associated with the sequence MGSDKIHHHHHHMTREKSSYAVQTVEKALDILETLTDESRHATLPYLAEKLDLSRNKAFRLLATLESKGLVERDETSGVYRLGISSVELAQRLLNSTSLIRHAHPIMERLARKHDEAVYIAVLKGDEVLFLDMVDCEQAIKTAPLVGRRFPFFSNAAGKAIRALESTDLLDRFLKKRGRNGGPFDPAALQQELKAVREHGVAVDFDGLGEGIVSVAVAVRDYAGKVIGALTMLGPSFRMMASRMENEIIPSLREGAEILSMKFGYAKL
(A) not soluble
